Record form. Attribute: IC50. Fill in for each entry.
Measurement target: KDM4A (Homo sapiens, UniProt O75164)
Sequence (O75164 1-1064): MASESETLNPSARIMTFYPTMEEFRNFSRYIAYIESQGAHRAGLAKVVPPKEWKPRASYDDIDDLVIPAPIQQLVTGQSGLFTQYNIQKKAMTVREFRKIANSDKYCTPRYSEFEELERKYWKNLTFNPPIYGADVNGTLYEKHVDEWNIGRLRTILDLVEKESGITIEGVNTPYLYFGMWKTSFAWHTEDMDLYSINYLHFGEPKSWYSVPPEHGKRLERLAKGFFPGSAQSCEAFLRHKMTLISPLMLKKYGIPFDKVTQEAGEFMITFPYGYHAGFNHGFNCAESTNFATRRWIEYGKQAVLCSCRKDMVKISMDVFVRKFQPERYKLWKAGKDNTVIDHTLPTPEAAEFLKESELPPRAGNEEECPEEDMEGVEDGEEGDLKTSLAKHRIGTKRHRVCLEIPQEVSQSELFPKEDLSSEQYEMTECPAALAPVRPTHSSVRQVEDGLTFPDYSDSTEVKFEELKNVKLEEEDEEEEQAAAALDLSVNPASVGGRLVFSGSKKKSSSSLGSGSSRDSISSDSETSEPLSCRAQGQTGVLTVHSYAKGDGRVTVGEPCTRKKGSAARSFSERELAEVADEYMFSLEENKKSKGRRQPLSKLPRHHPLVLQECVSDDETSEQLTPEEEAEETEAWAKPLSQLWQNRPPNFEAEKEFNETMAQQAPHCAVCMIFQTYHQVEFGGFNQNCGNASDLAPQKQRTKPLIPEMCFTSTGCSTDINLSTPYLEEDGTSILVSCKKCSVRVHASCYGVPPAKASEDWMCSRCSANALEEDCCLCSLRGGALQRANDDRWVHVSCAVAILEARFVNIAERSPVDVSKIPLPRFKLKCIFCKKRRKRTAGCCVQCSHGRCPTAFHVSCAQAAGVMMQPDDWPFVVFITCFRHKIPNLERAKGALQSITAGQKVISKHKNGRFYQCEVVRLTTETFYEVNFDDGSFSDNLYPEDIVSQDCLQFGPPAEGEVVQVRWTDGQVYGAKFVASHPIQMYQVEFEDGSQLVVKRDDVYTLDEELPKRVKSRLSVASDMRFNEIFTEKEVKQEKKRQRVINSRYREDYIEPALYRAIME
Quick note: give the figure in µM, leave out the unit.

# get_value(readout= IC50, system= KDM4A (Homo sapiens, UniProt O75164)) for `CCN(CCN(C)C)C(=O)CNCc1cc(C(=O)O)ccn1`
0.67

# get_value(readout= IC50, system= KDM4A (Homo sapiens, UniProt O75164)) for `CCOC(=O)c1ccnc(CNCC(=O)N(CC)CCN(C)C)c1`
11
